experiment: Biochemical Assay : 5 μl WT full length PAICS (final assay concentration, fac, 2.5 nM) in basic buffer, added to black, non-binding, 384-well plates (Corning #3575), columns 1 to 22. 5 μl basic buffer was added to columns 23+24 (negative control). PAICS stock at 31.9 μM from the PI's lab (Steve Firestine). Basic buffer contained 50 mM Tris-HCl pH8 and 0.5 mM EDTA, fac.1 μl compound in 100% DMSO added per well, or 1 μl 100% DMSO to positive controls (columns 1+2) and negative controls (columns 23+24). Final assay top concentration of compound either 1 mM or 30-μM, serially diluted with half-log dilutions across the plate in duplicate (one 10-point concentration response curve across wells 3 to 12, another across 13 to 22). Compounds pre-incubated with PAICS enzyme for 30 mins at RT. 2 μl CAIR added (fac 10 μM) in basic buffer plus 25 mM MgCl2 and 50 mM KHCO3 fac to all wells. CAIR stock 50 mM from Steve Firestine's lab. 1 hr RT incubation for AIR-CAIR equilibration. NB: ˜50% CAIR is decarboxylated during equilibration therefore 5 μM remains for the synthetase reaction.2 μl ATP/aspartic acid added (fac 30 μM/180 μM) in reaction buffer to all wells. 30 mins RT incubation for appropriate level of ATP turnover. Reaction buffer contained basic buffer plus 10 mM DTT, 0.01% BSA and 0.01% Brij 35, fac.10 μl ADP detection reagent added to all wells (as per instructions, Transcreener ADP2 FI kit, BellBrook Labs #3013-10K). Incubation for 1 h at RT to allow antibody equilibration. Fluorescence intensity determined using a Tecan Safire2 (excitation at 590 nm, emission at 617 nm).
PROPERTY: IC50

The compound `Nc1nc(C(=O)Nc2cc(N3CCN(C(=O)OCC4CNC4)CC3)ccc2Cl)co1` showed IC50 equal to > 100 nM
